Below is a list of entries, each paired with its recorded IC50 value.
target: PI3K-δ (Homo sapiens, UniProt O00329)
Sequence (O00329 whole entry, one chain of several): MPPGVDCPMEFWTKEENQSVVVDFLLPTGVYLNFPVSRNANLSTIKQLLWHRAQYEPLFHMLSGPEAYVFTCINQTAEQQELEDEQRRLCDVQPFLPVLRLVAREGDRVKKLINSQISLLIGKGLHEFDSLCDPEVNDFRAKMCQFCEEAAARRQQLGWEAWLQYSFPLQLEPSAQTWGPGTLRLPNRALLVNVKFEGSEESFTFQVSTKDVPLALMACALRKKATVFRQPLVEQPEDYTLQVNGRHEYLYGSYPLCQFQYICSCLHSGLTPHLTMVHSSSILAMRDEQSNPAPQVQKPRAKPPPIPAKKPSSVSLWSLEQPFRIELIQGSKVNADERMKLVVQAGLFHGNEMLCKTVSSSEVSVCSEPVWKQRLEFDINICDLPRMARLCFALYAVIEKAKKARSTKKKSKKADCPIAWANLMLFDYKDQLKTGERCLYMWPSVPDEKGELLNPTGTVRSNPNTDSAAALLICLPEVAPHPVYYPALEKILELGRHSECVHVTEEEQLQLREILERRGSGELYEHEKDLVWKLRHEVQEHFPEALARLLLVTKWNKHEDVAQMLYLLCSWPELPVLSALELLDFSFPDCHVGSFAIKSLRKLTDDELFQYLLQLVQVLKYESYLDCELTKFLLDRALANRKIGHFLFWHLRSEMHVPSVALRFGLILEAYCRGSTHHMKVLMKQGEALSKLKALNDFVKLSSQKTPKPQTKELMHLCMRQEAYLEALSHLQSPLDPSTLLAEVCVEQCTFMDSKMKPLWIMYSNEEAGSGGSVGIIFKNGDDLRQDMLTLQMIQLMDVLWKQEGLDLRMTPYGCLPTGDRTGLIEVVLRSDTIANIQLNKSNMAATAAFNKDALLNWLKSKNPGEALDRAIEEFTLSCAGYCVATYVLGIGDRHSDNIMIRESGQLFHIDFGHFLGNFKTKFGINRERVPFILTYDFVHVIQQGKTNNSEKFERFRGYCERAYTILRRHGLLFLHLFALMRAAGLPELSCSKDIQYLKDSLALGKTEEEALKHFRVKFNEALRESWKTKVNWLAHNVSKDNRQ
Respond with the figure and its unit, in that order.

O=c1cc(N2CCOCC2)oc2c(-c3ccccc3)cccc12 [LY294002, reference compound] : 850 nM

--- query ---
Prompt line: Param request: IC50 | system PI3K-δ (Homo sapiens, UniProt O00329) | item CCOC(=O)c1[nH]c2ccccc2c1/C=N/N=C/c1c(C(=O)OCC)[nH]c2ccccc12
Response line: 2680 nM

###

test system: MCF-7 breast cancer cells; assay: MTT cytotoxicity assay; format: cell-based; conditions: MCF-7 cells, MTT, 48 h, mean ± SD of three independent values
Assay readout: IC50 (µM)
Give just the number in µM; leave the unit off.

CCOC(=O)c1[nH]c2ccccc2c1/C=N/NC(N)=O [Compound 6] : 9.42

--- query ---
Prompt line: Write down IC50 measured for item CCOC(=O)c1[nH]c2ccccc2c1/C=N/NC(N)=S [Compound 3]
Response line: 10.2

###

Test system: MCF-7 breast cancer cells
Experiment: MTT cytotoxicity assay
Type: cell-based
Details: Homo sapiens, MCF7, 48 h, MCF-7 cells, MTT, 48 h, mean ± SD of three independent values
Experimental: The National Research Institute in Egypt donated the breast cancer (MCF-7) cells, which were collected and cultured in RPMI-1640 medium L-glutamine (Lonza Verviers SPRL, Verviers, Belgium, cat#12-604F). […] All cells were cultured, following routine tissue culture work, in 5% CO2 humidified at 37 °C. […] After 48 h, cell viability was evaluated using the MTT solution (Promega, Madison, WI, USA). […]
Below is a list of entries, each paired with its recorded pIC50 value.
The meaning of pIC50 here: minus log10 of the concentration in molar units.

The cases that follow already have their pIC50 on record.
CCOC(=O)c1[nH]c2ccccc2c1/C=N/n1c(-c2cc3ccccc3[nH]2)n[nH]c1=S : 5.36
CCOC(=O)c1[nH]c2ccccc2c1C=O [Compound 1, ethyl 3-formyl-1H-indole-2-carboxylate] : 4.71
CCOC(=O)c1[nH]c2ccccc2c1/C=N/NC(N)=S : 5.03

Prompt line: Write down pIC50 measured for item CCOC(=O)c1[nH]c2ccccc2c1/C=N/N=C/c1c(C(=O)OCC)[nH]c2ccccc12
Response line: 5.56

Prompt line: Write down pIC50 measured for item CCOC(=O)c1[nH]c2ccccc2c1/C=N/NC(N)=O
Response line: 4.99

Prompt line: Write down pIC50 measured for item CCOC(=O)c1[nH]c2ccccc2c1/C=N/Nc1ccc([N+](=O)[O-])cc1
Response line: 4.60

###

Molecular target: PI3K-β (Homo sapiens, UniProt P42338)
Construct: purchased Bioscience, USA #79802
Sequence (P42338 whole entry): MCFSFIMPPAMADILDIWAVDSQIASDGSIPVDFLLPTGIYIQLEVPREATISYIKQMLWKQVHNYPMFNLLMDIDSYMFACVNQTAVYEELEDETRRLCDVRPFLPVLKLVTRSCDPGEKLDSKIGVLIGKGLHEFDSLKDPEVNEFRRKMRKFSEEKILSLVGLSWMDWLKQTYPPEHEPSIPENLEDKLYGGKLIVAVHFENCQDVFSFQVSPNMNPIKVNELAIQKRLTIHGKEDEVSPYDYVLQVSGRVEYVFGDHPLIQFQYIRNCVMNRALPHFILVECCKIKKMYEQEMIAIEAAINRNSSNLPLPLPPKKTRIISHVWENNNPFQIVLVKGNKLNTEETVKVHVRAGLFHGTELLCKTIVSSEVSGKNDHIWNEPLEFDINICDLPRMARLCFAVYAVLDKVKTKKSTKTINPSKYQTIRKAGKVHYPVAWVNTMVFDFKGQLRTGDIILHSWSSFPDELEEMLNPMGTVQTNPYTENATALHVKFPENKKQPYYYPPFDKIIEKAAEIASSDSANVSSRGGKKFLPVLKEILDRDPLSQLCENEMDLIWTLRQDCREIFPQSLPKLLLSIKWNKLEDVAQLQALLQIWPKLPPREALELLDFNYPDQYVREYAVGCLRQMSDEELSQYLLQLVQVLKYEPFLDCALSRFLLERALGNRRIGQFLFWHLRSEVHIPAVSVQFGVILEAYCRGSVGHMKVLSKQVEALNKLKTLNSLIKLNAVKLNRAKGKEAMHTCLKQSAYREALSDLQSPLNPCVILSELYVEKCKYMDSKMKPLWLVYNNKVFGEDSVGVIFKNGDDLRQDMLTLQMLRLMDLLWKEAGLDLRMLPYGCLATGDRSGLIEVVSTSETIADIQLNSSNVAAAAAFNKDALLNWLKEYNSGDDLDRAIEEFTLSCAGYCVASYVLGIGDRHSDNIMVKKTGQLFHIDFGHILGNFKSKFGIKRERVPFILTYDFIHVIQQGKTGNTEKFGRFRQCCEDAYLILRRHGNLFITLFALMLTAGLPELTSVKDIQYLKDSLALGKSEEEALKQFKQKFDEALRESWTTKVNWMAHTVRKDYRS
Sequence (P27986 whole entry partner): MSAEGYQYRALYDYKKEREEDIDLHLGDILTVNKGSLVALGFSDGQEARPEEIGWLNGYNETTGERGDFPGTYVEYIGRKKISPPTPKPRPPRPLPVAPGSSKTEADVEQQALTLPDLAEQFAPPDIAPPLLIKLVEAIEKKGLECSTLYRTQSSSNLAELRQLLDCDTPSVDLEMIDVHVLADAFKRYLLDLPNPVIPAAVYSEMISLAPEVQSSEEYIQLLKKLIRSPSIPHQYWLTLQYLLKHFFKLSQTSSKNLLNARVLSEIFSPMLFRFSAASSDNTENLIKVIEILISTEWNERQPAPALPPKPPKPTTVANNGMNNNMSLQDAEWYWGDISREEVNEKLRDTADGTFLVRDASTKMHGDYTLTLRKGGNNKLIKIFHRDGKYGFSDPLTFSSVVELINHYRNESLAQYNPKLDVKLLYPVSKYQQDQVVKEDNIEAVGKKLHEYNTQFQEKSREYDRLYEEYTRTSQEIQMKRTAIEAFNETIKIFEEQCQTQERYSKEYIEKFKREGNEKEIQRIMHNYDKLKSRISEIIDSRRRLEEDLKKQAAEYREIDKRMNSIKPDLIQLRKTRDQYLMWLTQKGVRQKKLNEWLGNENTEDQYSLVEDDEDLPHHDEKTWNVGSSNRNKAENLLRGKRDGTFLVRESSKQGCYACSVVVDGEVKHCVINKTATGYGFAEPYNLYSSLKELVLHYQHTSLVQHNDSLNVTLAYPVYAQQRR
Assay: Kinase inhibitory assay (ELISA kit)
Assay type: biochemical
Conditions: average of three independent replicates; read-out: IC50 ± SD PI3K-β
Experimental: The following calculation was used to compute the proportion that chemicals inhibited autophosphorylation: […]. Using the GraphPad prism7 program, the IC50 was calculated using the curves of percentage inhibition of five concentrations of each chemical.
Assay readout: IC50 (µM)
Give just the number in µM; leave the unit off.

Prompt line: Write down IC50 measured for item CCOC(=O)c1[nH]c2ccccc2c1/C=N/N=C/c1c(C(=O)OCC)[nH]c2ccccc12
Response line: 2.27

src = paper PMC10748079
